Numbers sourced from patent US20110053897A1.

# assay system: Syk kinase (Homo sapiens)
# Construct: purchased
# test description: Syk kinase inhibition, Caliper LabChip off-chip mobility-shift kinase assay
# Assay type: biochemical
# measurement context: read-out: Syk Enzyme IC50
readout label: pIC50
# log scale: pIC50 equals minus log10 of the concentration in mol/L

Input line: Fill in: pIC50 of O=c1[nH]cc(F)c2cc(-c3cncnc3)nc(Nc3ccc(N4CCOCC4)cc3)c12 is ___
Output line: 7.26

Input line: // pIC50 lookup, key: Cc1cnc(Nc2cc3cc[nH]c(=O)c3c(Nc3ccc(C4CCN(C5CC5)CC4)c(C)c3)n2)cn1
Output line: 5.69

Input line: Looking for the measured pIC50 of Cn1ccc2cc(Nc3cnccn3)nc(N[C@H]3CC[C@@H](O)CC3)c2c1=O , can you help?
Output line: 7.62

Input line: Recorded pIC50 of CCNC(=O)CN1CCC(c2ccc(Nc3nc(-c4cncc(OC)n4)cc4cc[nH]c(=O)c34)cc2C)CC1 , please.
Output line: 7.10

Input line: Data request, read-out pIC50, for COc1cncc(-c2cc3cc[nH]c(=O)c3c(Nc3ccc(C4CCN(C(C)=O)CC4)c(C)c3)n2)n1
Output line: 7.04

Input line: Reported pIC50, molecule Cc1ccnc(Nc2cc3ccn(CCO)c(=O)c3c(N[C@H]3CCOC3)n2)c1 : ____
Output line: 7.92

Input line: Need pIC50 of Nc1ncc(-c2cc3cc[nH]c(=O)c3c(NC3CCOC3)n2)cn1 (stereo not drawn) , thanks.
Output line: 6.84

Input line: Which pIC50 value belongs to [2H]C([2H])([2H])n1ccc2cc(Nc3cc(C)c(Cl)cn3)nc(NC3CC3)c2c1=O ?
Output line: 6.33

Input line: Bench note: what pIC50 did Cn1ccc2cc(-c3cnc(N)nc3)nc(NCCN3CCOCC3)c2c1=O show?
Output line: 6.37

Input line: I am curious: what pIC50 value has been reported for Cc1n[nH]c2ncc(-c3cc4cc[nH]c(=O)c4c(Nc4ccc(N5CCOCC5)cc4)n3)cc12 ?
Output line: 6.58

Input line: What measured pIC50 goes with CCN1CCN(CCc2ccc(Nc3nc(Nc4ccccn4)cc4cc[nH]c(=O)c34)cc2)CC1 ?
Output line: 6.70

Input line: I have this molecule here, [2H]C([2H])([2H])n1ccc2cc(Nc3cnccn3)nc(NC3CC3)c2c1=O , and I need its recorded pIC50.
Output line: 7.31

Input line: Could you tell me which pIC50 is on file for Cc1cc(Nc2nc(Nc3ccc(Cl)cn3)cc3cc[nH]c(=O)c23)ccc1C1CCN(C2CC2)CC1 ?
Output line: 5.68

Input line: Recorded pIC50 for CCN1CCN(CCCc2ccc(Nc3nc(-c4cncc(OC)n4)cc4cc[nH]c(=O)c34)cc2)CC1 , please?
Output line: 7.38

Input line: Which pIC50 is reported for this molecule? CCN1CCN(c2n[nH]c3cc(Nc4nc(-c5ccc(C)nc5)cc5cc[nH]c(=O)c45)ccc23)CC1
Output line: 7.25

Input line: Consider the molecule CCOCCN1CCC(c2ccc(Nc3nc(-c4cncc(OC)n4)cc4cc[nH]c(=O)c34)cc2C)CC1 and give its measured pIC50.
Output line: 7.11

Input line: Requested field: pIC50. Item: CCn1ccc2cc(Nc3cc(C)ccn3)nc(N[C@@H](C)CO)c2c1=O
Output line: 7.60

Input line: Quick one: pIC50 for O=c1[nH]ccc2cc(-c3cncnc3)nc(Nc3ccc(CCn4cncn4)cc3)c12 ?
Output line: 6.74

Input line: Report pIC50 for CCn1ccc2cc(Nc3cc(C)c(F)cn3)nc(N[C@@H](C)CO)c2c1=O please.
Output line: 7.07

Input line: If you can, please state the reported pIC50 value of Cc1ccc(-c2cc3cc[nH]c(=O)c3c(Nc3cnn(CCN4CCOCC4)c3)n2)cn1 .
Output line: 7.00

Input line: Entry CCN1CCN(CCc2ccc(Nc3nc(-c4cncc(OC)n4)cc4cc[nH]c(=O)c34)cc2)CC1C (stereo not drawn) : reported pIC50 = ?
Output line: 7.47

Input line: Name the recorded pIC50 for CCn1ccc2cc(Nc3cc(Cl)ccn3)nc(NC(C)C)c2c1=O .
Output line: 6.59

Input line: I am curious: what pIC50 value has been reported for O=c1[nH]ccc2cc(CCCO)nc(Nc3ccc(N4CCOCC4)cc3)c12 ?
Output line: 7.35

Input line: Please report the recorded pIC50 for COC(=O)CN1CCC(c2ccc(Nc3nc(-c4cncc(OC)n4)cc4cc[nH]c(=O)c34)cc2C)CC1 .
Output line: 7.00

Input line: Entry COCC(O)CN1CCC(c2ccc(Nc3nc(-c4cncc(OC)n4)cc4cc[nH]c(=O)c34)cc2C)CC1 (stereo not drawn) : reported pIC50 = ?
Output line: 8.15

Input line: Any idea what its pIC50 is? The molecule is Cc1ccnc(Nc2cc3ccn(C)c(=O)c3c(Nc3ccc(S(C)(=O)=O)cc3)n2)c1
Output line: 7.11

Input line: What value of pIC50 has been recorded for this entry: CCc1ccnc(Nc2cc3cc[nH]c(=O)c3c(NC(C)C)n2)c1
Output line: 7.20

Input line: What value of measured pIC50 is listed for COCCN1CCC(c2ccc(Nc3nc(-c4cnc5nccn5c4)cc4cc[nH]c(=O)c34)cc2C)CC1 ?
Output line: 8.10

Input line: Please report the recorded pIC50 for COC[C@H](C)Nc1nc(Nc2cc(C)ccn2)cc2cc[nH]c(=O)c12 .
Output line: 7.01

Input line: Quick one: pIC50 of O=c1[nH]ccc2cc(Nc3cc(C(F)(F)F)ccn3)nc(NC3CC3)c12 ?
Output line: 6.41

###

# assay system: Syk kinase (Homo sapiens, UniProt P43405)
# Construct: purchased
# test description: Syk kinase inhibition, Caliper LabChip off-chip mobility-shift kinase assay
# Assay type: biochemical
# measurement context: Caliper LabChip assay; read-out: Syk Enzyme IC50
Assign pIC50 to each entry below.
Reminder that pIC50 is minus the log10 of a molar concentration.

Input line: Requested field: pIC50. Item: N#CCn1ccc2cc(-c3cnc(N)nc3)nc(NC3CCCC3)c2c1=O [compound 756]
Output line: 6.93

Input line: I am curious: what pIC50 value has been reported for CCn1ccc2cc(Nc3nccc(O)n3)nc(N[C@H]3CC[C@@H](O)C3)c2c1=O [compound 961] ?
Output line: 7.64

Input line: Fill blank: measured pIC50 of the compound CC1(Nc2nc(Nc3cnccn3)cc3ccn(CCO)c(=O)c23)CC1 [compound 838] is ____.
Output line: 7.77

Input line: Data request, read-out pIC50, for CC(C)(C)Nc1nc(Nc2nccc(O)n2)cc2ccn(CCO)c(=O)c12 [compound 826]
Output line: 7.60

Input line: So what's the measured pIC50 for this one? Cc1ccnc(Nc2cc3ccn(CCN4CCOCC4)c(=O)c3c(NC(C)(C)C)n2)c1 [compound 997]
Output line: 6.53

Input line: Any idea what pIC50 was measured for O=c1c2c(NC3CCS(=O)(=O)C3)nc(Nc3cnccn3)cc2ccn1CCO (centres unmarked) [compound 975] ?
Output line: 6.43

Input line: Name the recorded pIC50 for CC(C)(C)Nc1nc(Nc2cnccn2)cc2ccn(CCCO)c(=O)c12 [compound 1034] .
Output line: 7.92

Input line: Bench note: what pIC50 did CC(C)(C)Nc1nc(-c2cnc(N)nc2)cc2ccn(CC(=O)O)c(=O)c12 [compound 667] show?
Output line: 7.64

Input line: Quick one: pIC50 of CC(C)n1ccc2cc(Nc3cnccn3)nc(N[C@H]3CC[C@@H](O)CC3)c2c1=O [compound 944] ?
Output line: 7.49

Input line: # get_value(readout='pIC50', item= Cc1ccnc(Nc2cc3ccn(C)c(=O)c3c(Nc3ccc(C)c(S(N)(=O)=O)c3)n2)c1 [compound 654] )
Output line: 6.60

Input line: What value of measured pIC50 is listed for CCn1ccc2cc(Nc3cc(C(C)(C)O)ccn3)nc(NC(C)(C)CO)c2c1=O [compound 701] ?
Output line: 7.16

Input line: # lookup: pIC50 of O=c1c2c(N[C@H]3CC[C@@H](O)CC3)nc(Nc3cnccn3)cc2ccn1CC(F)(F)F [compound 1025]
Output line: 7.80

Input line: Which pIC50 reading was recorded for the compound CC(C)(C)Nc1nc(-c2cnc(N)nc2)cc2ccn(CCN3CCOCC3)c(=O)c12 [compound 1033] ?
Output line: 7.22

Input line: Given the entry CCn1ccc2cc(Nc3nccc(O)n3)nc(N)c2c1=O [compound 803] , report its measured pIC50.
Output line: 6.51

Input line: Item under review: CC(C)(C)Nc1nc(-c2cnc(N)nc2)cc2ccn(CCCO)c(=O)c12 [compound 915] . Reported pIC50?
Output line: 7.59

Input line: Name the reported pIC50 value associated with the compound CC(C)(C)Nc1nc(Nc2cc(C(C)(C)O)c(F)cn2)cc2ccn(CCO)c(=O)c12 [compound 717]
Output line: 7.74

Input line: Consider the compound CC(C)(C)Nc1nc(Nc2cnccn2)cc2ccn(C[C@@H](O)CO)c(=O)c12 [compound 668] and give its measured pIC50.
Output line: 8.15

Input line: Bench note: what pIC50 did CC(C)(C)Nc1nc(Nc2c[n+]([O-])ccn2)cc2ccn(C[C@@H](O)CO)c(=O)c12 [compound 675] show?
Output line: 8.22

Input line: Look at this compound and give its reported pIC50. CC(C)(C)Nc1nc(Nc2cc(CN3CCCCC3)ccn2)cc2ccn(CCO)c(=O)c12 [compound 604]
Output line: 6.60

Input line: Reported pIC50, compound Cc1ccnc(Nc2cc3ccn(C)c(=O)c3c(Nc3ccc(OCCN4CCOCC4)cc3)n2)c1 [compound 653] : ____
Output line: 6.48
